Test system: HOP-62
Assay: NCI tumour cell line growth inhibition, 48 h
Calls of active or inactive are those of the source. Cut-off read from the data, not from the text of the source: active = GI50 up to about 1.1 µM and inactive = higher.
Quantity Kind: GI50

Query :: Read the entry COc1cc([C@@H]2c3cc4c(cc3[C@@H](OC3OC5COC(C)OC5C(OC(=O)CN5CCN(C)CC5)C3OC(=O)CN3CCN(C)CC3)C3COC(=O)[C@@H]32)OCO4)cc(OC)c1OC(=O)CN1CCN(C)CC1 (stereo partly specified) and write its reported GI50.
Result :: 40.2 µM (inactive)

Query :: Read the entry COc1ccc(-c2c3c(nc4nc(SC)nc(SC)c24)CCCC3)cc1OC and write its reported GI50.
Result :: 46.8 µM (inactive)

Query :: Read the entry Cn1c(=O)c2c(n(C)c1=O)n1c(=O)c3ccccc3nc1n2C and write its reported GI50.
Result :: 39.9 µM (inactive)

Query :: Read the entry CCNC1CC(n2cc(C)c(=O)[nH]c2=O)OC1CO (stereo unspecified) and write its reported GI50.
Result :: > 100 µM (inactive)

Query :: Read the entry COc1ccc2nc3ccccc3c(NCCCCN(CCCl)CCCl)c2c1 and write its reported GI50.
Result :: 0.655 µM (active)

Query :: Read the entry O=NN1C(c2ccccc2)CNC(=O)CC1c1ccccc1 (stereo unspecified) and write its reported GI50.
Result :: 37.6 µM (inactive)

Query :: Read the entry Nc1ccccc1SC(/C=C/NNC1=NN=C(c2ccccc2)C(c2ccccc2)N1)c1ccccc1 (stereo unspecified) and write its reported GI50.
Result :: 19.5 µM (inactive)

Query :: Read the entry O=c1oc2c(Cl)cc(Cl)cc2cc1-c1cn2c(n1)sc1ccccc12 and write its reported GI50.
Result :: 53.5 µM (inactive)

Query :: Read the entry CN(C)c1ccc(/N=N\c2cccc3ccoc23)cc1 and write its reported GI50.
Result :: > 100 µM (inactive)

Query :: Read the entry COc1ccc2c(c1)-c1nn(CCN(C)C)c3ccc(C(=O)NCCCN(C)CCCNC(=O)c4ccc5c6c(c7cc(OC)ccc7nc46)NN5CCN(C)C)c(c13)N2 and write its reported GI50.
Result :: 0.0318 µM (active)

Query :: Read the entry COc1cc2c(c(OC(C)=O)c1OC(C)=O)-c1ccc(SC)c(=O)cc1C(NC(C)=O)CC2 (stereo unspecified) and write its reported GI50.
Result :: 7.59 µM (inactive)

Query :: Read the entry COc1ccc(C2C=C(c3ccc4c(c3)OCO4)Oc3c2c(=O)oc2ccccc32)cc1OC (stereo unspecified) and write its reported GI50.
Result :: > 100 µM (inactive)

Query :: Read the entry CS(=O)(=O)OCCN(CCOS(C)(=O)=O)c1ccc(/C=N/c2ccc3oc(=O)ccc3c2)cc1 and write its reported GI50.
Result :: 1.89 µM (inactive)

Query :: Read the entry CC(C)(C)CC(C)(C)N/C(N)=N/O and write its reported GI50.
Result :: > 100 µM (inactive)

Query :: Read the entry O=C1N(c2ccc(Cl)cc2)C(=O)C2(SC=NN2Cc2ccccc2)N1c1ccc(Cl)cc1 (stereo unspecified) and write its reported GI50.
Result :: > 100 µM (inactive)

Query :: Read the entry OCC(CCc1c[nH]c2ccccc12)c1c[nH]c2ccccc12 (stereo unspecified) and write its reported GI50.
Result :: 20.5 µM (inactive)

Query :: Read the entry [O-][S+]1c2ccccc2SCSc2ccccc21 and write its reported GI50.
Result :: > 100 µM (inactive)

Query :: Read the entry COc1ccc(-c2cc(=O)c3c(O)cc(O)cc3o2)cc1OC and write its reported GI50.
Result :: 24 µM (inactive)

Query :: Read the entry Cc1ccc(S(=O)(=O)NNCNC(=O)c2ccccc2)cc1 and write its reported GI50.
Result :: > 100 µM (inactive)

Query :: Read the entry CC12O[C@]3([C@H](C(=O)N4CCOC43C)[C@H]1Cl)[C@H]1O[C@H]12 (stereo partly specified) and write its reported GI50.
Result :: > 100 µM (inactive)

Query :: Read the entry CSc1nc(NC2OCC(OC(C)=O)C(OC(C)=O)C2OC(C)=O)c(/N=C\C=N\c2c(NC3OCC(OC(C)=O)C(OC(C)=O)C3OC(C)=O)nc(SC)[nH]c2=O)c(=O)[nH]1 (stereo unspecified) and write its reported GI50.
Result :: 30.5 µM (inactive)

Query :: Read the entry CC(=O)O[C@H]1C(=O)O[C@@H]2C[C@H]3C(C)=CC(=O)[C@@H](O)[C@]3(C)[C@H]3[C@@]4(O)OC[C@]32[C@@H]1[C@@H](C)[C@H]4O and write its reported GI50.
Result :: 0.0498 µM (active)

Query :: Read the entry O=S(=O)(c1ccccc1)N1N=C2c3ccccc3CCC[C@H]2C1c1ccccc1 (stereo partly specified) and write its reported GI50.
Result :: > 100 µM (inactive)

Query :: Read the entry CC(=O)c1cccc(NC(=O)C(=O)C(C(=O)NN)c2ccccc2)c1 (stereo unspecified) and write its reported GI50.
Result :: > 100 µM (inactive)

Query :: Read the entry O=c1/c(=C/c2ccc([N+](=O)[O-])o2)sc2n1[C@@H](c1ccc(Cl)cc1)C=C(c1cc(F)c(Cl)cc1Cl)N=2 and write its reported GI50.
Result :: 11.5 µM (inactive)

Query :: Read the entry C#CCN(N=O)C(=O)ON1C(=O)CCC1=O and write its reported GI50.
Result :: > 100 µM (inactive)

Hello, the source for this data is ChEMBL document CHEMBL1201862, in case you need it.
